Molecular target: UniProt:P09455
Sequence (P09455 1-135): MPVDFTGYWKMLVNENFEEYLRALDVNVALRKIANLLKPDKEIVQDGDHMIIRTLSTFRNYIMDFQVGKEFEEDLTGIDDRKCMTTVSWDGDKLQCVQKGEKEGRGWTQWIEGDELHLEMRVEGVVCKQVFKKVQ
Assay: Fluorescence binding assay: atROL displacement from holo-CRBP1 (FRET)
Conditions: reverse experiment: CRBP1 loaded with abn-CBD titrated with atROL; read-out: Ki value for replacing abn-CBD by vitamin A
pKi: −log10 of the molar value.
assay.metric: pKi

Exercise: Determine from records and report pKi for CC1=C(/C=C/C(C)=C/C=C/C(C)=C/CO)C(C)(C)CCC1 [atROL, all-trans-retinol]
Solution: ~7.47
